Values from paper PMC9482650

Molecular target: T1, LNX2_2, Q8N448
T1 sequence (Q8N448 334-432, limits assumed, looked up): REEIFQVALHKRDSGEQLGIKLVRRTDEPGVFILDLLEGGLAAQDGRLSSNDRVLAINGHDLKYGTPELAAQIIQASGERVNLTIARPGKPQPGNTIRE
Assay: holdup assay
Design: key: below the threshold = too weak to quantify, mostly under pKd 3.1 to 4
Settings: plain residues with an end cap or a label only (N-terminal biotin on a linker: ttds)
measured.endpoint: pKd

INSERT INTO results (binder, value) VALUES
  ('IYVPEAQTRL [DLGAP4, Q9Y2H0]', 'below the threshold'),
  ('RSLEEEESQL [GRASP, Q7Z6J2]', 'below the threshold'),
  ('SSRTRRETQL [HPV16-E6, P03126]', 'below the threshold'),
  ('SVWLRKETRV [CYSLTR2, Q9NS75]', 3.77);

Then this binder:
Query: Annotate the binder STLTIFETAL [ABCC4, O15439] with its measured pKd.
Result: below the threshold
